Ref: PubChem BioAssay AID686949

- system.tested: Kallikrein-7 (Homo sapiens)
- protocol.text: activation of human kallikrein-7 proenzyme – biochemical, fluorescence intensity, triplicate, confirmation (AID 686949)
- measurement.context: purified proKLK7, EDANS-DABCYL substrate fluorescence; at 7 µM; scaled: vehicle 0, mature enzyme 100
Hit rate of the full screen: of about 3,200 compounds, about 2,200 (69%) were called active.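 How the source made its calls: active means activation, as change over the incubation, above the mean of all tested compounds plus 3 SD (cut at about 13% in these data); inactive means the rest.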 So high a share suggests a set chosen from earlier hits. Only a sample is shown.
Mark one answer only. Choices: active, inactive

Example entries and their recorded answers appear below.
smiles.repr: COc1ccc(-c2cn3cccnc3n2)cc1
class.name: active

smiles.repr: Cn1cccc1/C=N/NC(=O)CNc1cccc2ccccc12
class.name: inactive

Could you now look at the following compound, please?
Which outcome was entered for the compound `NC(N)=Nc1nc(-c2ccccc2)c2cc(Cl)ccc2n1` in this test?
inactive

---

- system.tested: Kallikrein-7 (Homo sapiens)
- protocol.text: activation of human kallikrein-7 proenzyme – biochemical, fluorescence intensity, triplicate, confirmation (AID 686949)
- measurement.context: purified proKLK7, EDANS-DABCYL substrate fluorescence; at 7 µM; stronger effect = higher value; scaled: vehicle 0, mature enzyme 100
Among all 3,200 compounds or so, about 2,200 (69%) were called active. The set was probably picked from earlier hits. A selection follows.
endpoint.label: activation (%)
Write the answer as a number in %, unit excluded.

Some entries whose results are on file:
molecule: CC1CCCN(C(=O)c2cc(-c3ccco3)nc3ccccc23)C1 (stereo unspecified)
activation (%): 36.6

molecule: CC(C)(C)OC(=O)c1c(N)n(CCCN2CCCC2=O)c2nc3ccccc3nc12
activation (%): 69.5

molecule: COc1ccc2oc(=O)c(C(=O)N3CCCC3)cc2c1
activation (%): 23.8

molecule: CCc1nc(Nc2ccc(NC(C)=O)cc2)c2oc3ccccc3c2n1
activation (%): 69.9

Value lookup for activation; key = `CC(C)(C)Nc1c(-c2cccs2)nc2ccccn12`
-59.6

Consider next the molecule `CC(C)=NN1C(=O)c2ccccc2NC1(C)C` in the same way.
25

Do the same for `CCN(CC(=O)Nc1c(F)cccc1F)C(=O)c1ccc(-c2ccc(C(C)=O)cc2)o1` please
-16.9

Ok, now COc1ccc(C2=CC(c3cccc(OC)c3)n3nnnc3N2)cc1 (stereo unspecified)
-12.2

---

- system.tested: Kallikrein-7 (Homo sapiens)
- protocol.text: activation of human kallikrein-7 proenzyme – biochemical, fluorescence intensity, triplicate, confirmation (AID 686949)
- measurement.context: purified proKLK7, EDANS-DABCYL substrate fluorescence; at 7 µM; stronger effect = higher value; scaled: vehicle 0, mature enzyme 100
Among all 3,200 compounds or so, about 2,200 (69%) were called active. The set was probably picked from earlier hits. A selection follows.
endpoint.label: activation (%)
Give the number; % is assumed, so skip it.

// solved cases for activation follow
smiles.repr: COc1ccc2nc(-c3ccccn3)ccc2c1
activation / %: 3.28
//
smiles.repr: c1ccc(-c2cn3cccnc3n2)cc1
activation / %: 68.7

// lookup activation for `COCc1cc(=O)[nH]c2cc(NC(=O)C(F)(F)F)c(C)cc12`
239

What about `FC(F)(F)Oc1ccc(-c2cn3cccnc3n2)cc1` ?
36.4

---

- system.tested: Kallikrein-7 (Homo sapiens)
- protocol.text: activation of human kallikrein-7 proenzyme – biochemical, fluorescence intensity, triplicate, confirmation (AID 686949)
- measurement.context: purified proKLK7, EDANS-DABCYL substrate fluorescence; at 7 µM; stronger effect = higher value; scaled: vehicle 0, mature enzyme 100
The campaign covered roughly 3,200 compounds. About 2,200 (69%) were called active. So high a share suggests a set chosen from earlier hits. Only a sample is shown.
Measured activation values are reported for all entries that follow.

// solved cases for activation follow
molecule: CCN1CCN(C(=O)Cn2nc(C)n3c(cc4c(OC)cccc43)c2=O)CC1
system.tested: Kallikrein-7 (Homo sapiens)
activation: 21% (active)
--
molecule: C/C(=C\c1ccccc1)C1NC(=O)c2c(sc3c2CCCC3)N1 (stereo not drawn)
system.tested: Kallikrein-7 (Homo sapiens)
activation: 22.4% (active)

Let us examine a further case.
Give the measured activation of `CCN1CCN(C(=O)c2cc3cc4ccc(OC)cc4nc3s2)CC1` .
-15.9% (inactive)
